- System: HeLa cells
- assayExplanation: Compound cytotoxicity, WST-1 Cell Proliferation Reagent
- Format: cell-based
- recordedConditions: 48 hours exposure, WST-1
Recorded measurements of TC50, cytotoxicity in HeLa cells, one per entry
Write down the numeric answer in µM and omit the unit.

> print(dat)
                                   compound                       measurename  recordednumber
1  CCOC(=O)CCSc1ccccn1 [L2-04, ethyl 3-(pyridin-2-ylthio)propanoate]  TC50, cytotoxicity in HeLa cells           229.8

For the compound `COc1ccc(NC(=O)c2nc(S(C)(=O)=O)ncc2Cl)cc1Cl` , give its measured TC50, cytotoxicity in HeLa cells value.
18.8

====

- assayTarget: M. tuberculosis alanine racemase (Mycobacterium tuberculosis, UniProt P9WQA9)
- Sequence (P9WQA9 whole entry): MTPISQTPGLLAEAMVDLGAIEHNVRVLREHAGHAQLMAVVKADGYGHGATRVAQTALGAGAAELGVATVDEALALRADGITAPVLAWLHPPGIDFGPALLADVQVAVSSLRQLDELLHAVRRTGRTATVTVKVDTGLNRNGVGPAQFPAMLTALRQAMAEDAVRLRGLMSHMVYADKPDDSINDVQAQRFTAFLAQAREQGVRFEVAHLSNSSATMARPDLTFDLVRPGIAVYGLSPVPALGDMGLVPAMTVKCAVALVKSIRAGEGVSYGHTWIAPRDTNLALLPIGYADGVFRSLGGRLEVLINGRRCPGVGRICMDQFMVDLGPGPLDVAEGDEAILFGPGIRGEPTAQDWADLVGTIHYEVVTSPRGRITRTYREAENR
# strict inequality: IC50 < 5 µM yields satisfied, everything else yields not satisfied

Observe how each entry below is paired with its result.
> print(dat)
                                   molecule  categorylabel
1  Cc1ccc(S(=O)(=O)NN(C)C)cc1 [L2-01, N′,N′,4-trimethylbenzenesulfonohydrazide]  not satisfied
2        COc1ccc(CC(=S)N2CCOCC2)cc1 [L2-09]      satisfied
3  O=C1Nc2ccccc2C(=O)C1(O)O [L2-16, 3,3-dihydroxy-1H-quinoline-2,4-dione]  not satisfied
4  COc1ccc(NC(=O)c2nc(S(C)(=O)=O)ncc2Cl)cc1Cl [L2-06]  not satisfied

Turning to the following molecule.
Does CN(C)NS(=O)(=O)c1ccc2c(c1)Cc1cc(S(=O)(=O)NN(C)C)ccc1-2 [L2-02] have IC50 strictly under 5 µM?
satisfied

====

Record type: pIC50 measurement. Applies to: M. tuberculosis alanine racemase (Mycobacterium tuberculosis, UniProt P9WQA9)
To interpret pIC50, take it as minus log10 of a concentration measured in moles per litre.

For the compound `S=C(Cc1ccccc1)N1CCCCC1` , give its reported pIC50.
5.22

Determine from records and report pIC50 for CNC(=O)COc1ccccc1O [L2-15, 2-(2-hydroxyphenoxy)-N-methylacetamide]
5.24

Input CCOC(=O)CCSc1ccccn1 [L2-04, ethyl 3-(pyridin-2-ylthio)propanoate] , output reported pIC50.
5.59

Specify reported pIC50 for the compound shown: `CCOc1ccc(CCNC(=O)Cn2sc3nc(C)cc(C)c3c2=O)cc1`
5.11

====

- System: HeLa cells
- assayExplanation: Compound cytotoxicity, WST-1 Cell Proliferation Reagent
- Type: cell-based
- recordedConditions: 48 hours exposure, WST-1
The entries below come with measured TC50, cytotoxicity in HeLa cells values attached.
Respond numerically; units are µM and should not be typed.

The following molecules have reported results that may help.
> print(dat)
                                   molecule                       measurename  unitlabel  recordednumber
1  N[C@@H]1CONC1=O [CS, (4R)-4-amino-3-isoxazolidinone, reference compound]  TC50, cytotoxicity in HeLa cells         µM             203
2  COC(=O)c1cccc(C(=O)Oc2ccc(OC(=O)c3cccc(C(=O)OC)n3)c(Cl)c2)n1 [L2-10]  TC50, cytotoxicity in HeLa cells         µM           157.2

In the following, a different molecule is considered.
Give reported TC50, cytotoxicity in HeLa cells value for O=C1Nc2ccccc2C(=O)C1(O)O [L2-16, 3,3-dihydroxy-1H-quinoline-2,4-dione]
33.7
